# experiment-notes: sensitizers of A549 cells to miR-34 induction, primary screen, imaging, A549 dox-inducible miR-34, nuclei and caspase counts (AID 1347080); also: test concentration not given here
# protocol-conditions: A549 miR-34 inducible, Hoechst nuclei count, 48 h; measured here: total cells without miR-34 induction
result-type: cell count
Respond numerically, and do not add a unit to the figure.

Exercise: Tell us which cell count value is on record for N[C@@H](Cn1oc(=O)[nH]c1=O)C(=O)O
Solution: 8800

Exercise: Tell us which cell count value is on record for CCC(Oc1ccc(Cl)cc1)C(=O)OC1CC2CCC(C1)N2C (centres undefined)
Solution: 9270

Exercise: Tell us which cell count value is on record for Cc1nc(N)sc1CCN
Solution: 8730

Next:
Exercise: Tell us which cell count value is on record for Cc1cc(C(=O)CN2CCCC2)c(C)n1-c1ccc(F)cc1
Solution: 8840

Exercise: Tell us which cell count value is on record for NNC(N)=O
Solution: 11000

Exercise: Tell us which cell count value is on record for CCCCCCCCCCCCCC(=O)O[C@@H]1[C@@H](C)[C@@]2(O)[C@@H](C=C(CO)C[C@@]3(O)C(=O)C(C)=C[C@@H]23)C2C(C)(C)[C@@]21OC(C)=O (some centres undefined)
Solution: 618

Exercise: Tell us which cell count value is on record for NCC(CS(=O)(=O)O)c1ccc(Cl)cc1 (centres undefined)
Solution: 9570

----------
# experiment-notes: sensitizers of A549 cells to miR-34 induction, primary screen, imaging, A549 dox-inducible miR-34, nuclei and caspase counts (AID 1347080); also: test concentration not given here
# protocol-conditions: A549 miR-34 inducible, Hoechst nuclei count, 48 h; measured here: relative caspase fold change +Dox/-Dox
compounds and their reported fold change

Exercise: Tell us which fold change value is on record for CC(C)C[C@H]1C(=O)N2CCC[C@H]2[C@]2(O)O[C@](NC(=O)[C@@H]3C=C4c5cccc6[nH]cc(c56)C[C@H]4N(C)C3)(C(C)C)C(=O)N12
Solution: 1.12

Exercise: Tell us which fold change value is on record for c1cncc(C2=NCCC2)c1
Solution: 1.54

Exercise: Tell us which fold change value is on record for C[C@]12CC[C@H]3[C@@H](CCC4=CC(=O)CC[C@@H]43)[C@@H]1CC[C@@H]2O
Solution: 1.32

Exercise: Tell us which fold change value is on record for CN(C)[C@@H]1C(=O)C(C(N)=O)=C(O)[C@@]2(O)C(=O)C3=C(O)c4c(O)ccc(Cl)c4[C@@](C)(O)C3C[C@@H]12 (some centres not stated)
Solution: 1.43

Exercise: Tell us which fold change value is on record for O=C1OC2(c3cc(Br)c(O)cc3Oc3c2cc(Br)c(O)[c]3[Hg])c2ccccc21 (configuration not stated)
Solution: 1.08

Exercise: Tell us which fold change value is on record for Cn1c2c(c3ccccc31)CCNCC2
Solution: 1.23

Exercise: Tell us which fold change value is on record for CCCCC/C=C\C/C=C\C/C=C\C/C=C\CCCC(=O)NCCCl
Solution: 1.15

Exercise: Tell us which fold change value is on record for O=C1C=CC[C@@H]2[C@@H]3CCCN4CCC[C@@H](CN12)[C@@H]34
Solution: 0.733

Next:
Exercise: Tell us which fold change value is on record for CC1=C(O)C(=O)C=C2C1=CC=C1[C@@]2(C)CC[C@@]2(C)[C@@H]3C[C@](C)(C(=O)O)CC[C@]3(C)CC[C@]12C
Solution: 1.02

Exercise: Tell us which fold change value is on record for COc1ccc(S(=O)(=O)N(CCO)c2ccccc2CN(C)CC=Cc2ccc(Cl)cc2)cc1
Solution: 0.634
